- measurement protocol: Selectivity index, ratio of CC50 for african green monkey Vero cells to EC50 for HSV1 strain F ATCC VR733 infected in african green monkey Vero cells
- Type: toxicity, cell-based
- protocol conditions: read-out: Ratio CC50/EC50
measure name: selectivity ratio

Below, each entry is followed by its recorded selectivity ratio result.
>>> measured_value("Cc1nn(-c2ccc(C(N)=O)c(N[C@H]3CC[C@H](O)CC3)c2)c2c1C(=O)CC(C)(C)C2")
12.1
>>> measured_value("CC1(C)CC(=O)c2c(C(F)(F)F)nn(-c3ccc(C(N)=O)c(N[C@H]4CC[C@H](O)CC4)c3)c2C1 [SNX-2112]")
5.9
>>> measured_value("Cc1cn(-c2ccc(C(N)=O)c(N[C@H]3CC[C@H](O)CC3)c2)c2c1C(=O)CC(C)(C)C2")
12.6

Enquiry: Any idea what selectivity ratio was measured for Nc1nc2c(ncn2COCCO)c(=O)[nH]1 [ACYCLOVIR] ?
Return: > 167

----------
- measurement protocol: Cytotoxicity against african green monkey Vero cells assessed as inhibition of cell viability after 48 hrs by MTT assay
- Type: cell-based
- protocol conditions: chlorocebus sabaeus
Recorded CC50 at 48 h by entry
# value in µM; strip the unit string

>>> measured_value("Cc1cn(-c2ccc(C(N)=O)c(N[C@H]3CC[C@H](O)CC3)c2)c2c1C(=O)CC(C)(C)C2")
12.9
>>> measured_value("Cc1nn(-c2ccc(C(N)=O)c(N[C@H]3CC[C@H](O)CC3)c2)c2c1C(=O)CC(C)(C)C2")
27.1

Kindly consider the entry below.
Enquiry: Any idea what CC50 at 48 h was measured for CC1(C)CC(=O)c2c(C(F)(F)F)nn(-c3ccc(C(N)=O)c(N[C@H]4CC[C@H](O)CC4)c3)c2C1 ?
Return: 13.3

----------
- Test system: Human alphaherpesvirus 2
- measurement protocol: Antiviral activity against HSV2 strain 333 infected in african green monkey Vero cells assessed as inhibition of cytopathic effect after 48 hrs by plaque reduction assay
- Assay type: functional, cell-based
- protocol conditions: Human alphaherpesvirus 2, strain 333, Vero
measure name: EC50 (nM)
# value in nM; strip the unit string

Below, each entry is followed by its recorded EC50 result.
>>> measured_value("Cc1nn(-c2ccc(C(N)=O)c(N[C@H]3CC[C@H](O)CC3)c2)c2c1C(=O)CC(C)(C)C2")
1750
>>> measured_value("CC1(C)CC(=O)c2c(C(F)(F)F)nn(-c3ccc(C(N)=O)c(N[C@H]4CC[C@H](O)CC4)c3)c2C1")
1850
>>> measured_value("Cc1cn(-c2ccc(C(N)=O)c(N[C@H]3CC[C@H](O)CC3)c2)c2c1C(=O)CC(C)(C)C2")
1000

Enquiry: Any idea what EC50 was measured for Nc1nc2c(ncn2COCCO)c(=O)[nH]1 ?
Return: 1870

----------
- measurement protocol: Cytotoxicity against human MRC5 cells after 48 hrs by MTT assay
- Format: cell-based
measure name: CC50 at 48 h (µM)
# value in µM; strip the unit string

>>> measured_value("Cc1nn(-c2ccc(C(N)=O)c(N[C@H]3CC[C@H](O)CC3)c2)c2c1C(=O)CC(C)(C)C2")
54.1

Enquiry: Any idea what CC50 at 48 h was measured for Cc1cn(-c2ccc(C(N)=O)c(N[C@H]3CC[C@H](O)CC3)c2)c2c1C(=O)CC(C)(C)C2 ?
Return: 24.9

Enquiry: Any idea what CC50 at 48 h was measured for CC1(C)CC(=O)c2c(C(F)(F)F)nn(-c3ccc(C(N)=O)c(N[C@H]4CC[C@H](O)CC4)c3)c2C1 [SNX-2112] ?
Return: 21.3
